Target: Lysine-specific demethylase 4A (Homo sapiens) (UniProt O75164)
Sequence (O75164 whole entry, looked up, the tested form may be a part): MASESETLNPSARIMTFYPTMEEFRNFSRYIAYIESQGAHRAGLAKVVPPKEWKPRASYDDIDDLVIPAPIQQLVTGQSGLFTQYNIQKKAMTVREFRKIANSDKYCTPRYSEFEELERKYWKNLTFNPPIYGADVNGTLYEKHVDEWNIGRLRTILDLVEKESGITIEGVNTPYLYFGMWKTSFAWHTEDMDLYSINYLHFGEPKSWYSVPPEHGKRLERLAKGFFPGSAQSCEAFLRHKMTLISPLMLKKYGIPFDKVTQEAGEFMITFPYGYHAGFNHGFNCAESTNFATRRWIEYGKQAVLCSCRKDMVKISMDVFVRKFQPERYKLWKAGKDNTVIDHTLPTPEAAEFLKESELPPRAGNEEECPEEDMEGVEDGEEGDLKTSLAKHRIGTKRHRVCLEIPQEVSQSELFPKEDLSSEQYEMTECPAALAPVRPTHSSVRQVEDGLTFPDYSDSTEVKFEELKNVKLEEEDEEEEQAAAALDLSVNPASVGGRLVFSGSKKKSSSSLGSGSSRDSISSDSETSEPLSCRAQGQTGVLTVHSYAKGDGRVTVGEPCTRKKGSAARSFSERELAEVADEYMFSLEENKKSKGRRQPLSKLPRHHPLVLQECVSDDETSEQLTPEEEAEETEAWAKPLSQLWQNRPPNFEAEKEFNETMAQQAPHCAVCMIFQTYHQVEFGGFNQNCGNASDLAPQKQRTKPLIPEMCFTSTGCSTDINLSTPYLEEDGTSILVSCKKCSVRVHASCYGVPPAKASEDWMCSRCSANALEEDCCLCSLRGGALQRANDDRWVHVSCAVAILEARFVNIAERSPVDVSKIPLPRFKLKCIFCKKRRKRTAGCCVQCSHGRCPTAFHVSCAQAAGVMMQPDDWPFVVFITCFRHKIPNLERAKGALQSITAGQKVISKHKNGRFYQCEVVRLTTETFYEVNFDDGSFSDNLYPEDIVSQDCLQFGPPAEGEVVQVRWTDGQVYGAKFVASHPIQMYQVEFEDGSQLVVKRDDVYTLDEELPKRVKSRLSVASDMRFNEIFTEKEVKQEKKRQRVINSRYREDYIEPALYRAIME
Assay: qHTS Assay for Inhibitors of JMJD2A-Tudor Domain; also: nearly all actives have a fitted effect of over 50% in size
Settings: AlphaScreen JMJD2A-Tudor / H3K4me3 peptide binding; series mostly up to 114 µM
Description: JMJD2A is a jumonji-domain-containing lysine demethylase that uses Fe(II) together with 2-OG to effect oxidative demethylation of histones. Methylation is one of many […] modification that affect epigenetic transcription. […] A quantitative high throughput AlphaScreen has been developed to identify small molecule inhibitors based on a protocol published by NCGC and SGC [4]. […] [2] Yasgar, et al. Compound Management for Quantitative High-Throughput Screening. […]
About 17,000 (4.4%) of roughly 390,000 compounds were called active. Roughly 8% stayed inconclusive and do not appear here. Calls follow the shape of the dose curve; as a rule, active = well fitted inhibition curve with a large enough effect; inconclusive = small, poorly fitted or top-dose-only effect; inactive = no such curve, though single readings can be large or run the other way. The full list was thinned out, with actives kept by preference.
Return exactly one item of T = active, F = inactive

Exercise: Just curious, what result did Cc1coc2c(O)cc3c(c12)OC1(N2CCCCC2)C(=O)NCCCC31 (centres undefined) get here?
Solution: T

Exercise: Just curious, what result did S=c1[nH]nc(COc2ccccc2)n1-c1ccccc1 get here?
Solution: T

Exercise: Just curious, what result did Cc1c(NC(=O)CCCOc2ccccc2)cccc1[N+](=O)[O-] get here?
Solution: F

Exercise: Just curious, what result did O=C(CN1c2ccccc2S(=O)(=O)c2ccccc21)Nc1cccc(C(F)(F)F)c1 get here?
Solution: F
